test: Cytotoxicity against NQO1-deficient chinese hamster V79 cells assessed as reduction in cell viability after 72 hrs by MTT assay; assay type: toxicity, cell-based, Cricetulus griseus; conditions: v79
Parameter: pIC50
Give only the number. pIC50 is defined as minus log10 of concentration in molar units.

Worked cases, answers included:
Molecule	pIC50
O=C1C=C(NCc2cn(C[Se]c3ccccc3)nn2)C(=O)c2ccccc21	5.40
CC1(C)OC2=C(C(=O)c3ccccc3C2=O)C1n1cc(C[Se]c2ccccc2)nn1 (stereo unspecified)	5.39
CC1(C)CC(Nc2cccc(-c3cn(C[Se]c4ccccc4)nn3)c2)C2=C(O1)C(=O)c1ccccc1C2=O (stereo unspecified)	5.44
CC1(C)OC2=C(C(=O)C(=O)c3ccccc32)C1Nc1cccc(-c2cn(C[Se]c3ccccc3)nn2)c1 (stereo unspecified)	5.95

Given the entry `O=C1C(Br)=C(NCc2cn(C[Se]c3ccccc3)nn2)C(=O)c2ccccc21` , report its measured pIC50.
5.52

Query C#Cc1cccc(NC2C3=C(OC2(C)C)c2ccccc2C(=O)C3=O)c1 (stereo unspecified) next
5.67
